Just for reference, paper PMC10673995 is where these values come from.

# EXPERIMENTAL_TARGET: bovine β-cardiac myosin S1 (Bos taurus)
# Construct: IC50 for the ATPase activity of the isolated myosin motor domain; from tissue; host or cells: bovine ventricle
# Sequence (Q9BE39 85-778 limits assumed): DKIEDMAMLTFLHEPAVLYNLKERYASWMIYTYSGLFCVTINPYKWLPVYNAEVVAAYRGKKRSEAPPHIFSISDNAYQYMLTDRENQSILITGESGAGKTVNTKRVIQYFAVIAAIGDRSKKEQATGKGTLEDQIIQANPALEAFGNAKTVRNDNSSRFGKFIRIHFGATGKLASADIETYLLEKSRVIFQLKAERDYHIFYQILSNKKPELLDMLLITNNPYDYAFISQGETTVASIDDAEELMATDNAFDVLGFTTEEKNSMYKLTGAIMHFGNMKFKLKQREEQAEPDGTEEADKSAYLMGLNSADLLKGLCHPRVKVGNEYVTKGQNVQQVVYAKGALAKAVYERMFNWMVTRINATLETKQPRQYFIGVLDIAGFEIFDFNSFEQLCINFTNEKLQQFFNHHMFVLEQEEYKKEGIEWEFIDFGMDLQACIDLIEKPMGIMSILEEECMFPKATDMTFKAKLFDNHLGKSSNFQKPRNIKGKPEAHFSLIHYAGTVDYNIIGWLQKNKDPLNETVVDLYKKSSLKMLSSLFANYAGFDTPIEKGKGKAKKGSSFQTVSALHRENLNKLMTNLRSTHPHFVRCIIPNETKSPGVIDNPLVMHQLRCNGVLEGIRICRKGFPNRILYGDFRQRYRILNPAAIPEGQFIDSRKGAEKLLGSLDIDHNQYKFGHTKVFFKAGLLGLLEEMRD
# Sequence (P85100 whole entry partner, the tested form may be a part): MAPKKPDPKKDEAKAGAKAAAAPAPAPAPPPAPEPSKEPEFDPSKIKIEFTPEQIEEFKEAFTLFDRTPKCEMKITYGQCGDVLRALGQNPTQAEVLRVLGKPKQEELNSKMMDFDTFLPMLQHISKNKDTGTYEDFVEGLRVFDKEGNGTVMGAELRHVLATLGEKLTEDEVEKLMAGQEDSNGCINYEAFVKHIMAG
# MEASUREMENT_DESCRIPTION: Cardiac acto-myosin S1 ATPase (NADH-coupled)
# Assay type: biochemical
# COND: means ± s.e.m., n = 6; read-out: IC50 acto-myosin S1 ATPase activity
pIC50: −log10 of the molar value.

CHEM_SMILES: CCc1cc2c(=O)n(NC(=S)NC(C)C)cnc2s1
pIC50: 4.68

* * *

# EXPERIMENTAL_TARGET: bovine cardiac myofibrils (CMF) (Bos taurus)
# Sequence (Q9BE39 whole entry): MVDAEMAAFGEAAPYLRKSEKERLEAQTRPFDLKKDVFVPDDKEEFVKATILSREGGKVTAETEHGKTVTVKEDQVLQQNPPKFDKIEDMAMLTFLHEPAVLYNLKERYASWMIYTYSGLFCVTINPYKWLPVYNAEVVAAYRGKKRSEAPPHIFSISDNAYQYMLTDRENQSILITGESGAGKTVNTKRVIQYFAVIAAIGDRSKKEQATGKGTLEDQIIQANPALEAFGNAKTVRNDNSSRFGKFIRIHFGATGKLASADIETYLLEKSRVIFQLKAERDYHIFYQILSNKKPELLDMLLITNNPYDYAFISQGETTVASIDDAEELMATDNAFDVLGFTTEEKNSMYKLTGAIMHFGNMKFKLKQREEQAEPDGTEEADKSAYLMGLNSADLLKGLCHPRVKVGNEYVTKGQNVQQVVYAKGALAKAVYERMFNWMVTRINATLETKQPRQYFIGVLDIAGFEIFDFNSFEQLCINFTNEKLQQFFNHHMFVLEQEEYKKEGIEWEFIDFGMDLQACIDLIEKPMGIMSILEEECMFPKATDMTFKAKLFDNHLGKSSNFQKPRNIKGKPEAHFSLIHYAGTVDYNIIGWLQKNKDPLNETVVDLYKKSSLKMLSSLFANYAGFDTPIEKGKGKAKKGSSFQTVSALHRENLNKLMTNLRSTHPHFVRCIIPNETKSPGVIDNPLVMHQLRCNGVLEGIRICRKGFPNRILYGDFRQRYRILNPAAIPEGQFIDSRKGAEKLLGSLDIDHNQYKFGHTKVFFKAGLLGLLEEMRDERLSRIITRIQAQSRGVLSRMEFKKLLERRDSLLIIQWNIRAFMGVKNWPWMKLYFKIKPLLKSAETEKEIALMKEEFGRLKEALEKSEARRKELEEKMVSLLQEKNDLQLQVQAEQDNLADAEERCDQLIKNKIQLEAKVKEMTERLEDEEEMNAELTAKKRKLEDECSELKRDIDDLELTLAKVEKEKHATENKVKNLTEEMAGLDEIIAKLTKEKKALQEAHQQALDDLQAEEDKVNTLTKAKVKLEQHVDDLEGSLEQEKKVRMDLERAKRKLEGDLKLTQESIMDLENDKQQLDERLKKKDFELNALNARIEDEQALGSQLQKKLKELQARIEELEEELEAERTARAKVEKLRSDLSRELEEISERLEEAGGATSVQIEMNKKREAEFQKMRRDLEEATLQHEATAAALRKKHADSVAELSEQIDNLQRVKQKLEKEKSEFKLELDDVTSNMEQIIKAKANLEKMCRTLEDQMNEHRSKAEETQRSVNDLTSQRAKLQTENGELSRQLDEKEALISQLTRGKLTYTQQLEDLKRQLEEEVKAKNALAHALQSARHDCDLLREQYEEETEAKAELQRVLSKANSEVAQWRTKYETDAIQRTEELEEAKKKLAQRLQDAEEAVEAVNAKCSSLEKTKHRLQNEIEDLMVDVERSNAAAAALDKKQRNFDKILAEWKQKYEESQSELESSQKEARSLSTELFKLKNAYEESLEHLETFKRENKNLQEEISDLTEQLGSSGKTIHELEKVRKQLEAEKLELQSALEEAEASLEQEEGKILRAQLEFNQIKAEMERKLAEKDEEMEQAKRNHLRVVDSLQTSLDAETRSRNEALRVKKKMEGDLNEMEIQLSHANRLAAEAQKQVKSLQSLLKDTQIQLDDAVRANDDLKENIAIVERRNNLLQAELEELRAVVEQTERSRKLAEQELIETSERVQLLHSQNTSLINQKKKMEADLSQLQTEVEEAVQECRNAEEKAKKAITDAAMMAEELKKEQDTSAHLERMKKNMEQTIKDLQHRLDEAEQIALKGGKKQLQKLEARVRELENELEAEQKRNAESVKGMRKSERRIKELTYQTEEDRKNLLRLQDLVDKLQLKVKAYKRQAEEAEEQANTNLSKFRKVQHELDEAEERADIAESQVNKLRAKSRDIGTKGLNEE
# Sequence (P85100 whole entry partner): as the sequence (P85100 whole entry partner, the tested form may be a part) above
# Sequence (Q3SZE5 whole entry partner): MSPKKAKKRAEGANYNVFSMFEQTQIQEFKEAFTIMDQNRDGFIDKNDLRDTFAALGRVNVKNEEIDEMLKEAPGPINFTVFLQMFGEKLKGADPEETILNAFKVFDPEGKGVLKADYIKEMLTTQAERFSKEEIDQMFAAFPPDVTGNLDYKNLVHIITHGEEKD
# MEASUREMENT_DESCRIPTION: Bovine cardiac myofibrillar ATPase dose-response (F10 and derivatives)

CHEM_SMILES: CCc1cc2c(=O)n(NC(=S)NC(C)C)cnc2s1
IC50: ~24 µM
